system_tested: Recombinant human KIF18A (1-467 His-tagged) protein (Homo sapiens)
Construct: Recombinant human KIF18A (1-467 His-tagged) protein; His
procedure_summary: KIF18A Enzyme Assay: microtubule-stimulated ATPase activity (ADP-Glo)
details: 30 nM KIF18A, 75 μM ATP
Parameter IC50: see the listing below.
Output spec: scalar in nM, unitless text.

# record_smiles, quantity_unit, IC50
rows = [
    ("CC(C)(C)NS(=O)(=O)c1cccc(NC(=O)c2ccc(NC(C)(CO)CO)nc2N2CCC3(CC2)CC3)c1", "nM", 53),
    ("CC(C)(C)NS(=O)(=O)c1cc(NC(=O)c2ccc(NC(C)(C)CO)nc2N2CCC3(CC2)CC3)cc(C2CC2)c1", "nM", 633),
    ("CC(C)(CF)NS(=O)(=O)c1cccc(NC(=O)c2cccnc2N2CCC3(CC2)CC3)c1", "nM", 279),
    ("Cc1ccc(NC(=O)c2cccnc2N2CCC3(CC2)CC3)cc1S(=O)(=O)N1CCCCC1", "nM", 211),
    ("O=C(Nc1cccc(S(=O)(=O)C2CCCC2)c1)c1cccnc1N1CCC2(CC1)CC(F)(F)C2", "nM", 734),
    ("CC(C)(C)NS(=O)(=O)c1cccc(NC(=O)c2ccc(N[C@H]3C[C@@H](O)C3)nc2N2CCC3(CC2)CC3)c1", "nM", 98),
]

Exercise: Reported IC50, compound O=C(Nc1cccc(S(=O)(=O)C2CCCC2)c1)c1ccc(N[C@@H]2CC[C@H]2O)nc1N1CCC2(CC1)CC2 : ____
Key: 161

Exercise: Please look up its IC50: O=C(Nc1cccc(S(=O)(=O)C2CCCC2)c1)c1cccnc1N1CCC2(CCC2)CC1
Key: 134

Exercise: Any idea what its IC50 is? The compound is CC(C)(C)NS(=O)(=O)c1cccc(NC(=O)c2ccc(N3CCC(F)(F)C3)nc2N2CCC3(CC2)CC3)c1
Key: 302

Exercise: Fill in: IC50 of CCNc1ccc(C(=O)Nc2cccc(S(=O)(=O)C3CCCC3)c2)c(N2CCC3(CCC3)CC2)n1 is ___
Key: 97

Exercise: For CC(C)(C)NS(=O)(=O)c1cc(NC(=O)c2ccc(NC(C)(C)CO)nc2N2CCC3(CC2)CC3)ccc1F , what is its reported IC50?
Key: 116

Exercise: What value of measured IC50 is listed for Cn1nccc1-c1cccc(NC(=O)c2ccc(NC(C)(C)CO)nc2N2CCC3(CC2)CC3)c1 ?
Key: 542

Exercise: Which IC50 is reported for this compound? CC(C)(C)NS(=O)(=O)c1cccc(NC(=O)c2ccc(NC3CC(F)(F)C3)nc2N2CCC3(CC2)CC3)c1
Key: 294

Exercise: Please look up its IC50: O=C(Nc1cccc(S(=O)(=O)C2CCCC2)c1)c1ccc(N[C@@H]2CCOC2)nc1N1CCC2(CC1)CC2
Key: 51

---

Below, each entry is listed with its recorded IC50.
system_tested: Recombinant human KIF18A (1-467 His-tagged) protein (Homo sapiens)
Construct: Recombinant human KIF18A (1-467 His-tagged) protein; His
procedure_summary: KIF18A Enzyme Assay: microtubule-stimulated ATPase activity (ADP-Glo)
details: 30 nM KIF18A, 75 μM ATP
Your answer should be a plain number; it is taken to be in nM.

Sample records with IC50:
# compound, quantity_unit, IC50
records = [
    ("O=C(Nc1cccc(S(=O)(=O)C2CCC2)c1)c1cccnc1N1CCC2(CC1)CC2", "nM", 923),
    ("O=C(Nc1cccc(S(=O)(=O)C2CCCC2)c1)c1ccc(NC2(CCO)CC2)nc1N1CCC2(CC1)CC2", "nM", 55),
    ("CC(C)(C)NS(=O)(=O)c1cccc(NC(=O)c2ccc([C@](C)(O)CO)nc2N2CCC3(CC2)CC3)c1 (single isomer, unassigned)", "nM", 87),
    ("O=C(Nc1cccc(S(=O)(=O)N2CCCCC2)c1)c1cccnc1N1CCC2(CC1)CC2", "nM", 342),
    ("Cc1cnc(-c2cccc(NC(=O)c3ccc(NC(C)(C)CO)nc3N3CCC4(CC3)CC4)c2)o1", "nM", 135),
    ("CC(C)(C)NS(=O)(=O)c1cccc(NC(=O)c2ccc(NC(C)(C)CCO)nc2N2CCC3(CC2)CC3)c1", "nM", 80),
]

Exercise: I would be grateful if you could share the reported IC50 for CC(C)(C)NS(=O)(=O)c1cccc(NC(=O)c2ccc([C@@](C)(O)C(F)(F)F)nc2N2CCC3(CC2)CC3)c1 (single isomer, unassigned) .
Key: 97

Exercise: Given O=C(Nc1ccc(Br)c(C(=O)N2CCCC(F)(F)C2)c1)c1ccncc1N1CCC2(CC1)CC2 , state its recorded IC50.
Key: 577

Exercise: Fill in the blank: the reported IC50 of CC(C)(C)NS(=O)(=O)c1cccc(NC(=O)c2ccc(N3CCOCC3)nc2N2CCC3(CC2)CC3)c1 is ____.
Key: 238

Exercise: What value of IC50 has been recorded for this entry: CC(O)(c1ccc(C(=O)Nc2cccc(S(=O)(=O)NC3CC3)c2)c(N2CCC3(CC2)CC3)n1)C(F)(F)F (centres unmarked)
Key: 52

---

system_tested: Recombinant human KIF18A (1-467 His-tagged) protein (Homo sapiens, UniProt Q8NI77)
Construct: Recombinant human KIF18A (1-467 His-tagged) protein; His
Sequence (Q8NI77 1-467): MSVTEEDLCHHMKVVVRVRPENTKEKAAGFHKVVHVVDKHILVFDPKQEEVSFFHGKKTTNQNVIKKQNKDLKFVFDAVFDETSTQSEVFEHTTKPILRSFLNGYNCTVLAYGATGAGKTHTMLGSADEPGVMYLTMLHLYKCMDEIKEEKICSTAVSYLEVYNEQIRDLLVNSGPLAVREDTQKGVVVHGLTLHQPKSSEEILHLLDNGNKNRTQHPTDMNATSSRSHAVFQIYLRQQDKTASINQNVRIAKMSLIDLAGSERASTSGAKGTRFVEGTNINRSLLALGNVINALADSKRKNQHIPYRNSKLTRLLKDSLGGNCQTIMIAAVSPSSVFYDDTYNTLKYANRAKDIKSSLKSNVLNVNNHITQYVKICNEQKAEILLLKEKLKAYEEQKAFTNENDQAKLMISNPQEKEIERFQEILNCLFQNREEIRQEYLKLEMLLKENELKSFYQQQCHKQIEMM
Sequence (P02550 whole entry partner): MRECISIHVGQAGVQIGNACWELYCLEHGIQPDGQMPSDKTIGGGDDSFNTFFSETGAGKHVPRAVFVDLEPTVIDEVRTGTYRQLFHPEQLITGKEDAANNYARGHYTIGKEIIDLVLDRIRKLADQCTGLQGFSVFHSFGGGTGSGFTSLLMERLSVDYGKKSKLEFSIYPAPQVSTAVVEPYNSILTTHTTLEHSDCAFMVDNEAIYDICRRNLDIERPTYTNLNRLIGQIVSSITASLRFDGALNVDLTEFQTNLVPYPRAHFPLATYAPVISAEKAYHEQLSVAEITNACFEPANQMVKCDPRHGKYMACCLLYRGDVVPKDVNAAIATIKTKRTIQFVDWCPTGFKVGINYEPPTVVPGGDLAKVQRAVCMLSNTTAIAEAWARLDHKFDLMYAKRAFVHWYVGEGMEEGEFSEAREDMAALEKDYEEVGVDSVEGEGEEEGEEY
Sequence (P02554 whole entry partner): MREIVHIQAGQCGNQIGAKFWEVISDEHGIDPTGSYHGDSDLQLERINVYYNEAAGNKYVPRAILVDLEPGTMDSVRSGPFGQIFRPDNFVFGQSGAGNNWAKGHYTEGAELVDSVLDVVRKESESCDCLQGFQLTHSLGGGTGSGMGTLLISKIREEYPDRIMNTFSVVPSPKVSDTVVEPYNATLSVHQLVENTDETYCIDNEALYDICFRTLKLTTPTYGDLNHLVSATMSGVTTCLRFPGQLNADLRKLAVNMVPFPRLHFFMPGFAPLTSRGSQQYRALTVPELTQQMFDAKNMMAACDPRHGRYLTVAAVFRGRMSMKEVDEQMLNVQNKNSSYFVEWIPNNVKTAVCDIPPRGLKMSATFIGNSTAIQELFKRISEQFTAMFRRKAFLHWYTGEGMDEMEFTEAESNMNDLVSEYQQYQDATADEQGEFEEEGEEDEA
procedure_summary: KIF18A Enzyme Assay: microtubule-stimulated ATPase activity (ADP-Glo)
details: 30 nM KIF18A, 75 μM ATP
Reported pIC50 values for the following molecules.
Value format note: pIC50 is -log10 of concentration (mol/L); just state the number.

Study these solved cases before continuing.
# record_smiles, pIC50
data = [
    ("CC(C)(C)NS(=O)(=O)c1cccc(NC(=O)c2ccc(NC3(C)COC3)nc2N2CCC3(CC2)CC3)c1", 7.25),
    ("CC(C)(C)NS(=O)(=O)c1cccc(NC(=O)c2ccc(N[C@@H]3CCOC[C@H]3O)nc2N2CCC3(CC2)CC3)c1", 6.59),
    ("O=C(Nc1cccc(S(=O)(=O)C2CCCC2)c1)c1ccc(NCCCO)nc1N1CCC2(CC1)CC2", 7.33),
    ("COc1cc(NC(=O)c2ccc(NC(C)(C)CO)nc2N2CCC3(CC2)CC3)cc(S(=O)(=O)NC(C)(C)C)c1", 6.87),
    ("CC(C)(C)NS(=O)(=O)c1cccc(NC(=O)c2ccc(N[C@H]3COC[C@@H]3O)nc2N2CCC3(CC2)CC3)c1", 6.99),
    ("Cc1ccc(NC(=O)c2ccc(NC(C)(C)CO)nc2N2CCC3(CCC3)CC2)cc1S(=O)(=O)C1CCCC1", 7.17),
]

Exercise: Form field: reported pIC50 of COCCNc1ccc(C(=O)Nc2cccc(S(=O)(=O)C3CCCC3)c2)c(N2CCC3(CC2)CC3)n1
Key: 7.22

Exercise: Report pIC50 for CC(C)(C)NS(=O)(=O)c1cccc(NC(=O)c2ccc(NC(CO)CO)nc2N2CCC3(CC2)CC3)c1 please.
Key: 6.96

---

system_tested: Recombinant human KIF18A (1-467 His-tagged) protein (Homo sapiens)
Construct: Recombinant human KIF18A (1-467 His-tagged) protein; His
procedure_summary: KIF18A Enzyme Assay: microtubule-stimulated ATPase activity (ADP-Glo)
details: 30 nM KIF18A, 75 μM ATP
experimental_endpoint: IC50
For clarity, give the value followed by its unit.

# record_smiles, system_tested, IC50
records = [
    ("O=C(Nc1cccc(S(=O)(=O)N2CCCCC2)c1)c1cccnc1N1CCC2(CCC2)CC1", "Recombinant human KIF18A (1-467 His-tagged) protein (Homo sapiens)", "217 nM"),
    ("CC(C)(C)NS(=O)(=O)c1cc(Br)cc(NC(=O)c2ccc(NC(C)(C)CO)nc2N2CCC3(CC2)CC3)c1", "Recombinant human KIF18A (1-467 His-tagged) protein (Homo sapiens)", "143 nM"),
    ("CC1(NS(=O)(=O)c2cccc(NC(=O)c3cccnc3N3CCC4(CC3)CC4)c2)CC1", "Recombinant human KIF18A (1-467 His-tagged) protein (Homo sapiens)", "320 nM"),
]

Exercise: Return reported IC50; argument: CC(C)(O)C(C)(C)Nc1ccc(C(=O)Nc2cccc(S(=O)(=O)C3CCCC3)c2)c(N2CCC3(CC2)CC3)n1
Key: 109 nM

---

system_tested: Recombinant human KIF18A (1-467 His-tagged) protein (Homo sapiens, UniProt Q8NI77)
Construct: Recombinant human KIF18A (1-467 His-tagged) protein; His
procedure_summary: KIF18A Enzyme Assay: microtubule-stimulated ATPase activity (ADP-Glo)
details: 30 nM KIF18A, 75 μM ATP
experimental_endpoint: log10 of IC50 (log10 of the value in nM)
The base-10 logarithm of IC50, taken with IC50 in nM, is what appears here.

Here are 6 compounds together with their reported answers.
# record_smiles, system_tested, log10 of IC50
data = [
    ("CC(C)(CO)Nc1ccc(C(=O)Nc2cccc(S(=O)(=O)C(C)(C)C(F)(F)F)c2)c(N2CCC3(CC2)CC3)n1", "Recombinant human KIF18A (1-467 His-tagged) protein (Homo sapiens, UniProt Q8NI77)", 2.32),
    ("C[C@@H](CO)Nc1ccc(C(=O)Nc2cccc(S(=O)(=O)C3CCCC3)c2)c(N2CCC3(CC2)CC3)n1", "Recombinant human KIF18A (1-467 His-tagged) protein (Homo sapiens, UniProt Q8NI77)", 1.62),
    ("CC1(O)CN(c2ccc(C(=O)Nc3cccc(S(=O)(=O)NC(C)(C)C)c3)c(N3CCC4(CC3)CC4)n2)C1", "Recombinant human KIF18A (1-467 His-tagged) protein (Homo sapiens, UniProt Q8NI77)", 2.29),
    ("Cc1ccc(NC(=O)c2ccc(NC(C)(C)CO)nc2N2CCC3(CC2)CC3)cc1-c1nccs1", "Recombinant human KIF18A (1-467 His-tagged) protein (Homo sapiens, UniProt Q8NI77)", 2.54),
    ("CC(C)(CO)Nc1ccc(C(=O)Nc2cccc(S(=O)(=O)C3(C)CCC3)c2)c(N2CCC3(CC2)CC3)n1", "Recombinant human KIF18A (1-467 His-tagged) protein (Homo sapiens, UniProt Q8NI77)", 1.89),
    ("Cc1ccc(NC(=O)c2ccc(NC(C)(C)CO)nc2N2CCC3(CC2)CC3)cc1-c1cc[nH]n1", "Recombinant human KIF18A (1-467 His-tagged) protein (Homo sapiens, UniProt Q8NI77)", 2.53),
]

Exercise: # get_value(readout='log10 of IC50', item= Cc1ccc(NC(=O)c2cccnc2N2CCC3(CC2)CC3)cc1S(=O)(=O)NC1CC1 )
Key: 2.85

Exercise: Any idea what log10 of IC50 was measured for CC(C)(CO)Nc1ccc(C(=O)Nc2cccc(N3CCS(=O)(=O)CC3)c2)c(N2CCC3(CC2)CC3)n1 ?
Key: 2.21

Exercise: Item Cc1ccc(NC(=O)c2ccc(NC3(CO)CC3)nc2N2CCC3(CC2)CC3)cc1S(=O)(=O)C1CCCC1 has what recorded log10 of IC50?
Key: 1.76
